Value source: ChEMBL document CHEMBL5584269

EC50 listing for selected compounds.
# System: Trypanosoma brucei
# EXPERIMENTAL_PROTOCOL: Antitrypanosomal activity against bloodstream trypomastigote form of Trypanosoma brucei Lister 427 assessed as reduction in parasite growth incubated for 72 hrs by alamar blue dye based fluorescence analysis
# Type: functional, organism-based
# RUN_PARAMETERS: Lister 427, 72 h
Report the figure in µM without appending any unit label.

[in] Answer with the recorded EC50 of COC(=O)[C@@H]1CCCN1C(=O)[C@H](C)CSCc1ccccc1 only.
[out] 32.9

[in] Name the recorded EC50 of the item C[C@H](CS)C(=O)N1CCC[C@H]1C(=O)O [CAPTOPRIL] in your answer.
[out] 22.9

[in] Give a short answer stating reported EC50 for COC(=O)[C@@H]1CCCN1C(=O)[C@H](C)CS .
[out] 15.2

[in] Input CC(C)(C)C(=O)N1CCC[C@H]1C(=O)O , output reported EC50.
[out] 61.5

[in] Read the entry CSC[C@@H](C)C(=O)N1CCC[C@H]1C(=O)O and write its reported EC50.
[out] 26.3

====

# System: Trypanosoma brucei
# EXPERIMENTAL_PROTOCOL: Antitrypanosomal activity against bloodstream trypomastigote form of Trypanosoma brucei Lister 427 assessed as reduction in parasite growth incubated for 72 hrs by alamar blue dye based fluorescence analysis
# Type: functional, organism-based
# RUN_PARAMETERS: Lister 427, 72 h
RECORDED_METRIC: pEC50
Scale note: pEC50 = -log10(concentration in M).

{"CHEMICAL_SMILES": "COC(=O)[C@@H]1CCCN1C(=O)CCSC", "pEC50": 4.91}
{"CHEMICAL_SMILES": "COC(=O)[C@@H]1CCCN1C(=O)CCS", "pEC50": 4.69}

[in] Name the recorded pEC50 of the compound listed here: COC(=O)[C@@H]1CCCN1C(=O)Cc1ccccc1
[out] 4.42

[in] Complete the entry with pEC50 for N=C(N)c1ccc(OCCCCCOc2ccc(C(=N)N)cc2)cc1
[out] 8.70

[in] Identify the reported pEC50 for the following entry. CSCCC(=O)N1CCC[C@H]1C(=O)O
[out] 4.55

[in] For O=C(O)[C@H]1CCCN1C(=O)CCSCc1ccccc1 , write its pEC50.
[out] 5.23

[in] Please look at this compound and report its pEC50: CC(C)(C)C(=O)N1CCC[C@@H]1C(=O)O
[out] 3.97

====

EC50 for assorted compounds
# Test system: Leishmania major
# EXPERIMENTAL_PROTOCOL: Antileishmanial activity against promastigote form of Leishmania major Freidlin assessed as reduction in parasite growth incubated for 72 hrs by alamar blue dye based fluorescence analysis
# Type: functional, organism-based
Entry rule: numbers only, all in µM.

Field: example entries. Status: answers known.
{"CHEMICAL_SMILES": "C[C@H](CS)C(=O)N1CCC[C@H]1C(=O)O", "UNITS_SYMBOL": "µM", "EC50": 12.4}
{"CHEMICAL_SMILES": "O=C(O)[C@@H]1CCCN1C(=O)Cc1ccccc1", "UNITS_SYMBOL": "µM", "EC50": 14.5}
{"CHEMICAL_SMILES": "O=C(O)[C@H]1CCCN1C(=O)Cc1ccccc1", "UNITS_SYMBOL": "µM", "EC50": 104}
{"CHEMICAL_SMILES": "COC(=O)[C@@H]1CCCN1C(=O)[C@H](C)CS", "UNITS_SYMBOL": "µM", "EC50": 7.29}
{"CHEMICAL_SMILES": "COC(=O)[C@@H]1CCCN1C(=O)CC(C)C", "UNITS_SYMBOL": "µM", "EC50": 1.97}
{"CHEMICAL_SMILES": "CC(C)(C)C(=O)N1CCC[C@@H]1C(=O)O", "UNITS_SYMBOL": "µM", "EC50": 48.1}
{"CHEMICAL_SMILES": "O=C(O)[C@@H]1CCCN1C(=O)CCS", "UNITS_SYMBOL": "µM", "EC50": 9.88}
{"CHEMICAL_SMILES": "COC(=O)[C@H]1CCCN1C(=O)Cc1ccccc1", "UNITS_SYMBOL": "µM", "EC50": 101}

Please look at the following compound next.
[in] # return EC50 of COC(=O)[C@@H]1CCCN1C(=O)C(C)C (system: Leishmania major)
[out] 4.51

====

Below, each entry is listed with its recorded pEC50.
# Test system: Trypanosoma brucei
# EXPERIMENTAL_PROTOCOL: Antitrypanosomal activity against bloodstream trypomastigote form of Trypanosoma brucei Lister 427 assessed as reduction in parasite growth incubated for 72 hrs by alamar blue dye based fluorescence analysis
# Type: functional, organism-based
# RUN_PARAMETERS: Lister 427, 72 h
# reply with the number alone; pEC50 is -log10 of concentration in mol/L

{"CHEMICAL_SMILES": "COC(=O)[C@@H]1CCCN1C(=O)CC(C)C", "pEC50": 5.71}
{"CHEMICAL_SMILES": "COC(=O)[C@@H]1CCCN1C(=O)C(C)C", "pEC50": 5.01}
{"CHEMICAL_SMILES": "COC(=O)[C@@H]1CCCN1C(=O)[C@H](C)CSC", "pEC50": 4.88}
{"CHEMICAL_SMILES": "CSCCC(=O)N1CCC[C@@H]1C(=O)O", "pEC50": 5.01}
{"CHEMICAL_SMILES": "CC(C)C(=O)N1CCC[C@H]1C(=O)O", "pEC50": 4.91}

[in] Using known records, supply pEC50 for COC(=O)[C@H]1CCCN1C(=O)C(C)(C)C
[out] 4.01

[in] Look up and report measured pEC50 for this entry: CC(C)CC(=O)N1CCC[C@H]1C(=O)O
[out] 5.61

[in] Please give measured pEC50 of the following entry: COC(=O)[C@@H]1CCCN1C(=O)C(C)(C)C
[out] 4.23

[in] Indicate the recorded pEC50 value for this compound: CC(C)C(=O)N1CCC[C@@H]1C(=O)O
[out] 5.00

[in] Give a short answer stating reported pEC50 for COC(=O)[C@H]1CCCN1C(=O)CCSC .
[out] 5.23

[in] For the compound COC(=O)[C@H]1CCCN1C(=O)C(C)C , give its measured pEC50 value.
[out] 5.12

[in] Specify pEC50 for COC(=O)[C@H]1CCCN1C(=O)CC(C)C and stop.
[out] 5.84

====

# Tested on: Leishmania major
# EXPERIMENTAL_PROTOCOL: Antileishmanial activity against promastigote form of Leishmania major Freidlin assessed as reduction in parasite growth incubated for 72 hrs by alamar blue dye based fluorescence analysis
# Format: functional, organism-based
Listed next: entries and their corresponding EC50.
// return numeric value only (unit: nM, not printed)

{"CHEMICAL_SMILES": "COC(=O)[C@@H]1CCCN1C(=O)CCSC", "RECORDED_METRIC": "EC50", "MEASUREMENT": 2460}

[in] Please tell me the measured EC50 for CC(C)CC(=O)N1CCC[C@H]1C(=O)O ; system: Leishmania major.
[out] 2260

[in] Report measured EC50 on Leishmania major; entry: CSCCC(=O)N1CCC[C@H]1C(=O)O
[out] 16800

[in] Write EC50 of CC(C)CC(=O)N1CCC[C@@H]1C(=O)O ; system used: Leishmania major
[out] 2770

[in] Provide EC50, system Leishmania major, entry CSCCC(=O)N1CCC[C@@H]1C(=O)O
[out] 4810

====

# Test system: Trypanosoma brucei
# EXPERIMENTAL_PROTOCOL: Antitrypanosomal activity against bloodstream trypomastigote form of Trypanosoma brucei Lister 427 assessed as reduction in parasite growth incubated for 72 hrs by alamar blue dye based fluorescence analysis
# Assay type: functional, organism-based
# RUN_PARAMETERS: Lister 427, 72 h
pEC50: −log10 of the molar value.
Label scheme for pEC50: lower than 5 is false (0), 5 and above is true (1).

{"CHEMICAL_SMILES": "COC(=O)[C@H]1CCCN1C(=O)Cc1ccccc1", "CAT": "false (0)"}
{"CHEMICAL_SMILES": "O=C(O)[C@@H]1CCCN1C(=O)CCS", "CAT": "false (0)"}
{"CHEMICAL_SMILES": "O=C(O)[C@@H]1CCCN1C(=O)Cc1ccccc1", "CAT": "false (0)"}

Next compound, please.
[in] Assess whether reported pEC50 for COC(=O)[C@@H]1CCCN1C(=O)CCSCc1ccccc1 sits at 5 or higher.
[out] true (1)

====

Entries and their EC50
# System: Trypanosoma brucei
# EXPERIMENTAL_PROTOCOL: Antitrypanosomal activity against bloodstream trypomastigote form of Trypanosoma brucei Lister 427 assessed as reduction in parasite growth incubated for 72 hrs by alamar blue dye based fluorescence analysis
# Assay type: functional, organism-based
# RUN_PARAMETERS: Lister 427, 72 h

Below are worked cases with known answers.
{"CHEMICAL_SMILES": "O=C(O)[C@@H]1CCCN1C(=O)CCSCc1ccccc1", "RECORDED_METRIC": "EC50", "MEASUREMENT": "14.8 µM"}
{"CHEMICAL_SMILES": "CC(C)CC(=O)N1CCC[C@@H]1C(=O)O", "RECORDED_METRIC": "EC50", "MEASUREMENT": "1.92 µM"}
{"CHEMICAL_SMILES": "O=C(O)[C@H]1CCCN1C(=O)CCS", "RECORDED_METRIC": "EC50", "MEASUREMENT": "16.7 µM"}

[in] Provide EC50, tested on Trypanosoma brucei, for O=C(O)[C@H]1CCCN1C(=O)Cc1ccccc1 .
[out] > 200 µM

[in] Consider the compound C[C@H](CSCc1ccccc1)C(=O)N1CCC[C@H]1C(=O)O tested on Trypanosoma brucei; state its EC50.
[out] 38.6 µM

[in] Report value only: EC50, Trypanosoma brucei, COC(=O)[C@H]1CCCN1C(=O)CCSCc1ccccc1
[out] 4.11 µM
